Consider the following compounds and their measured log10 of IC50 readings.
system: CEM-SS cells; assay: Cytotoxicity assay (growth inhibition, Coulter counter); conditions: Homo sapiens, CEM-SS, 48 h
# values: log10(IC50), units nM

COMPOUND	EXPERIMENTAL_SYSTEM	NUMBER
Nc1nc(Cl)nc2c1ncn2[C@H]1C[C@H](O)[C@@H](CO)O1	CEM-SS cells	1.90

Task: Query: log10 of IC50; subject: Nc1ncnc2c1ncn2[C@@H]1O[C@H](CO)[C@@H](O)[C@@H]1O
Output: 2.85

Task: Query: log10 of IC50; subject: Nc1ncnc2c1ncn2[C@H]1C[C@H](O)[C@@H](CO)O1
Output: 3.23

Task: Query: log10 of IC50; subject: NC(=O)NO [Hydroxyurea]
Output: 4.74

Task: Query: log10 of IC50; subject: Nc1nc(N)c2ncn(CCOCP(=O)(O)O)c2n1
Output: 3.36

Task: Query: log10 of IC50; subject: CC[C@]1(O)C[C@@H]2CN(CCc3c([nH]c4ccccc34)[C@@](C(=O)OC)(c3cc4c(cc3OC)N(C)[C@H]3[C@@](O)(C(=O)OC)[C@H](OC(C)=O)[C@]5(CC)C=CCN6CC[C@]43[C@@H]65)C2)C1
Output: 0.26

Task: Query: log10 of IC50; subject: Nc1ncnc2c1ncn2[C@@H]1O[C@H](CO)[C@@H](O)[C@H]1O
Output: 4.58
